Values compiled from patent US20240400544A1.

molecular target: UniProtKB Q9Y5Y9; assay: E-VIPR Assay Detecting and Measuring NaV Inhibition Properties; details: HEK cells expressing a truncated form of human NaV 1.8 with full channel activity; electrical stimulation, membrane potential FRET dyes; read-out: measured IC50 value in the E-VIPR Assay
Sequence (Q9Y5Y9 126-1722 limits assumed): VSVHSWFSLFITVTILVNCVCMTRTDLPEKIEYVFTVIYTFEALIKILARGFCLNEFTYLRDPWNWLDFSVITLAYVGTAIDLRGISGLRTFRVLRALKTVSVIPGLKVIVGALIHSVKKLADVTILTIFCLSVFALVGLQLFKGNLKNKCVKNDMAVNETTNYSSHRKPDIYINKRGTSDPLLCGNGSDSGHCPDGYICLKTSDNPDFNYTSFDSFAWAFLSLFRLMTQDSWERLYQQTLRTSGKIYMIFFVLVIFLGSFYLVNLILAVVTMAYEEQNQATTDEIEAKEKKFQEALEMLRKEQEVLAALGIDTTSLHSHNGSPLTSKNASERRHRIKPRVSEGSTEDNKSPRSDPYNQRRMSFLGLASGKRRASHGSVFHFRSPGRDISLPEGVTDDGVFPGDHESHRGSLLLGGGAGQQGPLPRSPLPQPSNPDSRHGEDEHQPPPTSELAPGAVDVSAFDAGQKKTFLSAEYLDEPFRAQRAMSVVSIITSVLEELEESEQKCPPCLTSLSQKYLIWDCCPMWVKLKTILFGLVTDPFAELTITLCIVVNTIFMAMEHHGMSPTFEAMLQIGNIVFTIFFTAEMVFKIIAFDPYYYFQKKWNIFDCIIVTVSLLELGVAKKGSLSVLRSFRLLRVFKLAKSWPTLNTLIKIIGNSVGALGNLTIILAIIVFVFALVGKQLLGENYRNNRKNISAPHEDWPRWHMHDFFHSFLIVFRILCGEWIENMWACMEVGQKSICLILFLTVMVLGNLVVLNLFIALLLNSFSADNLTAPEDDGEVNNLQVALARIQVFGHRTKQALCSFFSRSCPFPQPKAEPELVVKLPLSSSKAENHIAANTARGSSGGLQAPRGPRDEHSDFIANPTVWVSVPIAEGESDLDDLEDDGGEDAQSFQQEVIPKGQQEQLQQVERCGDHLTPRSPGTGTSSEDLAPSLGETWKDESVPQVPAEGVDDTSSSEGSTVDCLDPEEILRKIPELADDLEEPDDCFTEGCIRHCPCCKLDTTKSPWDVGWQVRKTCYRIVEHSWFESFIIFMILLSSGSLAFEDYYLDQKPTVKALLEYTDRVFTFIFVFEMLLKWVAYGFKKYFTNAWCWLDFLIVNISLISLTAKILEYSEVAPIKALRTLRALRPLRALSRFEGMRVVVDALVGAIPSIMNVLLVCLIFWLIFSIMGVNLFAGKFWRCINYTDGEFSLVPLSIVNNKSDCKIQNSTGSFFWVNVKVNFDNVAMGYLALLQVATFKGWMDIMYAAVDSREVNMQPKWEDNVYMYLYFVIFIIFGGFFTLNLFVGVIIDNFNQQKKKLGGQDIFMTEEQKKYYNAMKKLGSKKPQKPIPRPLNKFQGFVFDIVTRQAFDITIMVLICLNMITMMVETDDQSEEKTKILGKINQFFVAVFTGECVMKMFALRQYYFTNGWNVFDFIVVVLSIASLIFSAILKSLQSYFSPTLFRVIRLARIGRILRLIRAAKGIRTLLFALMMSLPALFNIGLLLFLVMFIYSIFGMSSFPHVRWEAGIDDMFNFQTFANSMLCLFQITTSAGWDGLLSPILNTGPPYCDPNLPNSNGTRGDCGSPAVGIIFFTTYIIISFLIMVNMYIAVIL
Record form. Attribute: IC50. Fill in for each entry.

INSERT INTO assay_data (compound, endpoint_result) VALUES
  ('COCCOc1c([C@@H]2[C@@H](C(=O)Nc3cnc(C(O)CO)nc3)O[C@](C)(C(F)(F)F)[C@@H]2C)ccc(F)c1C (single isomer, unassigned) [Compound 13]', '≥ 1 µM'),
  ('COCCOc1c([C@H]2[C@H](C(=O)Nc3ccc([C@@H](O)CO)nc3)O[C@@](C)(C(F)(F)F)[C@H]2C)ccc(F)c1F [Compound 10]', '< 0.01 µM'),
  ('COCCOc1c([C@H]2[C@H](C(=O)Nc3ccc(C(O)COC)nc3)O[C@@](C)(C(F)(F)F)[C@H]2C)ccc(F)c1F (single isomer, unassigned) [Compound 21]', '0.01 to 0.1 µM'),
  ('COCCOc1c([C@H]2[C@@H](C(=O)Nc3cnc(C(O)CO)nc3)O[C@@](C)(C(F)(F)F)[C@H]2C)ccc(F)c1C (single isomer, unassigned) [Compound 16]', '≥ 1 µM');

I would be grateful if you could provide IC50 for each of the following entries.
1. C[C@H]1[C@@H](c2ccc(F)c(F)c2OCCN2CCOCC2)[C@H](C(=O)Nc2ccc([C@@H](O)CO)nc2)O[C@@]1(C)C(F)(F)F [Compound 11]
2. COc1c([C@H]2[C@H](C(=O)Nc3cnc4c(c3)CCC4O)O[C@@](C)(C(F)(F)F)[C@H]2C)ccc(F)c1F (single isomer, unassigned) [Compound 3]
3. COCCOc1c([C@H]2[C@@H](C)[C@@](C)(C(F)(F)F)O[C@H]2C(=O)Nc2cnc(C(O)CO)nc2)ccc(F)c1C (single isomer, unassigned) [Compound 15]
4. COc1c([C@H]2[C@H](C(=O)Nc3cnc4c(c3)OCC4O)O[C@@](C)(C(F)(F)F)[C@H]2C)ccc(F)c1F (single isomer, unassigned) [Compound 2]
5. CO[C@H](C)COc1c([C@H]2[C@H](C(=O)Nc3ccc(CO)nc3)O[C@@](C)(C(F)(F)F)[C@H]2C)ccc(F)c1F [Compound 6]
6. C[C@H]1[C@@H](c2ccc(F)c(F)c2OCC(=O)N(C)C)[C@H](C(=O)Nc2ccc(CO)nc2)O[C@@]1(C)C(F)(F)F [Compound 7]
7. C[C@H]1[C@@H](c2ccc(F)c(F)c2OC2CC3(COC3)C2)[C@H](C(=O)Nc2ccc(CO)nc2)O[C@@]1(C)C(F)(F)F [Compound 8]
8. CO[C@@H](C)COc1c([C@H]2[C@H](C(=O)Nc3ccc(CO)nc3)O[C@@](C)(C(F)(F)F)[C@H]2C)ccc(F)c1F [Compound 5]

["0.01 to 0.1 µM", "0.1 to 1 µM", "≥ 1 µM", "0.1 to 1 µM", "0.01 to 0.1 µM", "0.01 to 0.1 µM", "0.1 to 1 µM", "0.01 to 0.1 µM"]
